- PROTOCOL DETAILS: Anthelmintic activity against Megascoplex konkanensis ICARBC 211 assessed as mean death time
- Assay type: functional
Residues, ends and D or L forms follow the SMILES beside them. *: point of attachment. X1 = Cc1cc2nc(-c3ccc(O)c(C(=O)*)c3)[nH]c2cc1C
Entries and their measured TIME follow.

MOLECULE	UNIT OF MEASUREMENT	TIME
Cc1cc2nc(-c3ccc(O)c(C(=O)N[C@@H](C)C(=O)N[C@H](C(=O)N[C@@H](C)C(=O)O)C(C)C)c3)[nH]c2cc1C	h	0.57
COC(=O)[C@H](Cc1cnc[nH]1)NC(=O)CNC(=O)[C@H](Cc1c[nH]c2ccccc12)NC(=O)CNC(=O)c1cc(-c2nc3cc(C)c(C)cc3[nH]2)ccc1O (X1-GWGH-OMe)	h	0.291
COC(=O)Nc1nc2cc(C(=O)c3ccccc3)ccc2[nH]1	h	0.382
COC(=O)[C@@H]1CCCN1C(=O)[C@@H]1CCCN1C(=O)[C@@H]1CCCN1C(=O)c1cc(-c2nc3ccc([N+](=O)[O-])cc3[nH]2)ccc1O	h	0.569
COC(=O)[C@H](CCCNC(=N)N[N+](=O)[O-])NC(=O)c1cc(-c2nc3ccc([N+](=O)[O-])cc3[nH]2)ccc1O	h	0.426
COC(=O)[C@@H]1CCCN1C(=O)[C@@H](NC(=O)[C@H](Cc1ccccc1)NC(=O)c1cc(I)c(-c2nc3cc(C)c(C)cc3[nH]2)c(I)c1)C(C)C	h	0.672
Cc1cc2nc(-c3c(I)cc(C(=O)N[C@@H](Cc4ccccc4)C(=O)N[C@H](C(=O)N4CCC[C@H]4C(=O)O)C(C)C)cc3I)[nH]c2cc1C	h	0.698
